Here, each record is paired with measured pIC50 data.
Test system: GM1 production in Jurkat cells
assay.procedure: cells
Assay type: cell-based
condition.parameters: Homo sapiens, Jurkat, 72 h
In simple prose, pIC50 is minus the logarithm base ten of a concentration in moles per litre.

Please review the following examples before continuing.
CN1C(=O)COc2ccc(-c3ccc4c(c3)OCCC4NC(=O)O[C@@H]3CN4CCC3CC4)cc21 (some centres unmarked) [Example 74] : 7.35
O=C(NC1CCOc2cc(-c3cc(Cl)cc(Cl)c3)ccc21)O[C@@H]1CN2CCC1CC2 (some centres unmarked) [Example 29] : 7.91
O=C(NC1CCOc2ccc(-c3cccc(OC(F)(F)F)c3)cc21)O[C@@H]1CN2CCC1CC2 (some centres unmarked) [Example 95] : 6.29

What measured pIC50 is associated with COc1ccc(-c2ccc3c(c2)OCC(C)(C)C3NC(=O)O[C@@H]2CN3CCC2CC3)cc1 (some centres unmarked) [Example 206] on GM1 production in Jurkat cells?
11.00

CC(C)(C)c1ccc(-c2cc3c(cc2F)C(NC(=O)O[C@@H]2CN4CCC2CC4)C(C)(C)CO3)cc1 (some centres unmarked) [Example 345] ?
8.80

O=C(NC1CCOc2ccc(-c3ccccc3C(F)(F)F)cc21)O[C@@H]1CN2CCC1CC2 (some centres unmarked) [Example 93] ?
7.10

CC1(C)COc2cc(-c3ccc(OC(F)F)cc3)ccc2C1NC(=O)O[C@@H]1CN2CCC1CC2 (some centres unmarked) [Example 218] ?
8.57

COc1c(C)cc(-c2ccc3c(c2)OCC(C)(C)C3NC(=O)O[C@@H]2CN3CCC2CC3)cc1C (some centres unmarked) [Example 255] ?
8.29

###

Here, each record is paired with measured IC50 data.
tested.on: glucosylceramide synthase (GCS) (Homo sapiens)
Construct: The obtained supernatant was used
assay.procedure: GCS enzyme inhibition assay (A549 cell lysate, NBD C6-ceramide, HPLC fluorescence)
condition.parameters: inhibitory activity against GCS, 37° C., 90 minutes

Please review the following examples before continuing.
CC(C)(C)c1ccc(-c2ccc3c(c2)OCC(C)(C)C3NC(=O)O[C@@H]2CN3CCC2CC3)cc1 (stereo partly shown) : 0.51 nM
CC(C)Cc1ccc(-c2ccc3c(c2)OCC(C)(C)C3NC(=O)O[C@@H]2CN3CCC2CC3)cc1 (stereo partly shown) : 0.36 nM
O=C(NC1CCOc2cc(-c3ccc4c(c3)OCCO4)ccc21)O[C@@H]1CN2CCC1CC2 (stereo partly shown) : 1.4 nM

# lookup: IC50 of CN(C)c1ccc(-c2ccc3c(c2)OCC(C)(C)C3NC(=O)O[C@@H]2CN3CCC2CC3)cn1 (stereo partly shown)
1.64 nM

COc1cc(OC)cc(-c2ccc3c(c2)OCC(C)(C)C3NC(=O)O[C@@H]2CN3CCC2CC3)c1 (stereo partly shown) ?
0.75 nM

CC(C)Oc1ccc(-c2ccc3c(c2)OCC(C)(C)C3NC(=O)O[C@@H]2CN3CCC2CC3)cc1F (stereo partly shown) ?
0.65 nM

O=C(NC1CCSc2cc(-c3cccc(OC(F)(F)F)c3)ccc21)O[C@@H]1CN2CCC1CC2 (stereo partly shown) ?
1.5 nM

###

Here, each record is paired with measured IC50 data.
tested.on: glucosylceramide synthase (GCS) (Homo sapiens, UniProt Q16739)
Construct: The obtained supernatant was used
Sequence (Q16739 1-394): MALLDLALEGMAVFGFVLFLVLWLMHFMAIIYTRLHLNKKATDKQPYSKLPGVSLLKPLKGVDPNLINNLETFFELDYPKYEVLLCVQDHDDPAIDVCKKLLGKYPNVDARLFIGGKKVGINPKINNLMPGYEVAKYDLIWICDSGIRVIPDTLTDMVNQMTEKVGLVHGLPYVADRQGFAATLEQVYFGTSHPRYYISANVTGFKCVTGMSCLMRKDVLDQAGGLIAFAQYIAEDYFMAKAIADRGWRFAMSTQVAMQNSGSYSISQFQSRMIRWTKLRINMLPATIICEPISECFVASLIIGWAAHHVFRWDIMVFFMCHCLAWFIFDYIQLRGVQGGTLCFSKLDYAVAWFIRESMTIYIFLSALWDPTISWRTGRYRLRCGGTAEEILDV
assay.procedure: GCS enzyme inhibition assay (A549 cell lysate, NBD C6-ceramide, HPLC fluorescence)
condition.parameters: inhibitory activity against GCS, 37° C., 90 minutes
Method: Ibiglustat, known as a GCS inhibitor, was used as a control. After the cells attached to the culture dish were washed with phosphate buffered saline (PBS), the cells were scraped off with a cell scraper and then centrifuged (4000 rpm, 3 min, 4° C.) to collect the cells in a 50 ml tube. […] The obtained supernatant was used for the quantitative analysis of proteins. The amount of proteins was measured using the BCA protein assay kit, using bovine serum albumin as a standard. […]
Please respond with the number in nM and leave the unit unwritten.

Please review the following examples before continuing.
CC1(C)COc2cc(-c3ccc(F)cc3Cl)ccc2C1NC(=O)O[C@@H]1CN2CCC1CC2 (stereo partly shown) : 0.62
COc1cc(-c2ccc3c(c2)OCC(C)(C)C3NC(=O)O[C@@H]2CN3CCC2CC3)ccc1Cl (stereo partly shown) : 1.39
CC1(C)COc2cc(-c3ccc4c(c3)OCCCO4)ccc2C1NC(=O)O[C@@H]1CN2CCC1CC2 (stereo partly shown) : 0.29
COCOc1ccc(-c2ccc3c(c2)OCC(C)(C)C3NC(=O)O[C@@H]2CN3CCC2CC3)cc1 (stereo partly shown) : 0.69
CC1(C)COc2cc(-c3ccc4c(c3)OCCO4)ccc2C1NC(=O)O[C@@H]1CN2CCC1CC2 (stereo partly shown) : 0.37
CC1(C)COc2cc(Cc3ccccc3)ccc2C1NC(=O)O[C@@H]1CN2CCC1CC2 (stereo partly shown) : 1.48
CC1(NC(=O)O[C@@H]2CN3CCC2CC3)CCOc2cc(-c3cccc(C(F)(F)F)c3)ccc21 (stereo partly shown) : 0.7
COc1cc2c(cc1-c1cccc(C(C)C)c1)OCC(C)(C)C2NC(=O)O[C@@H]1CN2CCC1CC2 (stereo partly shown) : 0.61
CCOc1c(C)cc(-c2ccc3c(c2)OCC(C)(C)C3NC(=O)O[C@@H]2CN3CCC2CC3)cc1C (stereo partly shown) : 1.35
CC1(C)COc2cc(-c3cccc(F)c3)ccc2C1NC(=O)O[C@@H]1CN2CCC1CC2 (stereo partly shown) : 0.8

# lookup: IC50 of O=C(NC1CCOc2ccc(-c3cccc(C(F)(F)F)c3)cc21)O[C@@H]1CN2CCC1CC2 (stereo partly shown)
29.6

O=C(NC1CCOc2ccc(-c3cccc(F)c3)cc21)O[C@@H]1CN2CCC1CC2 (stereo partly shown) ?
9.68

CCOc1cc(-c2ccc3c(c2)OCC(C)(C)C3NC(=O)O[C@@H]2CN3CCC2CC3)c(Cl)cc1Cl (stereo partly shown) ?
2.83

O=C(NC1CCOc2ccc(-c3ccccc3C(F)(F)F)cc21)O[C@@H]1CN2CCC1CC2 (stereo partly shown) ?
4.25

O=C(NC1CCOc2cc(-c3cccc(F)c3)ccc21)O[C@@H]1CN2CCC1CC2 (stereo partly shown) ?
2.6

CC1(C)COc2cc(-c3ccc(N4CCOCC4)c(Cl)c3)ccc2C1NC(=O)O[C@@H]1CN2CCC1CC2 (stereo partly shown) ?
0.65

###

System: GM1 production in Jurkat cells
assay.procedure: cells
Type: cell-based
condition.parameters: Homo sapiens, Jurkat, 72 h
Here, each record is paired with measured IC50 data.
Please respond with the number in nM and leave the unit unwritten.

Please review the following examples before continuing.
CN(C)c1cccc(-c2ccc3c(c2)SCCC3NC(=O)O[C@@H]2CN3CCC2CC3)c1 (stereo partly shown) : 10.3
O=C(NC1CCOc2cc(-c3cccc4cnccc34)ccc21)O[C@@H]1CN2CCC1CC2 (stereo partly shown) : 14.1
O=C(NC1CCOc2cc(-c3ccc(C4CC4)cc3)ccc21)O[C@@H]1CN2CCC1CC2 (stereo partly shown) : 5.44

Now consider a different compound.
# lookup: IC50 of CC1(C)COc2cc(-c3cccc4cccnc34)ccc2C1NC(=O)O[C@@H]1CN2CCC1CC2 (stereo partly shown)
0.66

###

System: GM1 production in Jurkat cells
assay.procedure: cells
Type: cell-based
condition.parameters: Homo sapiens, Jurkat, 72 h
Here, each record is paired with measured IC50 data.
Please respond with the number in nM and leave the unit unwritten.

Please review the following examples before continuing.
CC(C)c1cccc(-c2ccc3c(c2)COCC3NC(=O)O[C@@H]2CN3CCC2CC3)c1 (stereo partly shown) : 34.5
CC1(C)COc2cc(-c3cccc(C#N)c3)ccc2C1NC(=O)O[C@@H]1CN2CCC1CC2 (stereo partly shown) : 5.83

# lookup: IC50 of CC1(C)COc2cc(/C=C/c3ccsc3)ccc2C1NC(=O)O[C@@H]1CN2CCC1CC2 (stereo partly shown)
9

COCCOc1cccc(-c2ccc3c(c2)OCC(C)(C)C3NC(=O)O[C@@H]2CN3CCC2CC3)c1 (stereo partly shown) ?
0.12

CC1(C)COc2cc(-c3cc(F)ccc3F)ccc2C1NC(=O)O[C@@H]1CN2CCC1CC2 (stereo partly shown) ?
1.1

CC1(C)COc2cc(-c3ccccc3)ccc2C1NC(=O)O[C@@H]1CN2CCC1CC2 (stereo partly shown) ?
0.7

CC1(C)COc2cc(-c3ccc(=O)n(Cc4ccccc4)c3)ccc2C1NC(=O)O[C@@H]1CN2CCC1CC2 (stereo partly shown) ?
30.2

C=Cc1ccccc1-c1ccc2c(c1)OCC(C)(C)C2NC(=O)O[C@@H]1CN2CCC1CC2 (stereo partly shown) ?
1.7

C=Cc1cccc(-c2ccc3c(c2)OCC(C)(C)C3NC(=O)O[C@@H]2CN3CCC2CC3)c1 (stereo partly shown) ?
0.6

CC1(C)COc2cc(-c3cccc(CC#N)c3)ccc2C1NC(=O)O[C@@H]1CN2CCC1CC2 (stereo partly shown) ?
6.9

CC1(C)COc2cc(-c3cc(Cl)cc(C(F)(F)F)c3)ccc2C1NC(=O)O[C@@H]1CN2CCC1CC2 (stereo partly shown) ?
3.22

CC1(C)COc2cc(-c3cc(F)c(F)cc3F)ccc2C1NC(=O)O[C@@H]1CN2CCC1CC2 (stereo partly shown) ?
1.94

COc1cc(-c2ccc3c(c2)OCCC3NC(=O)O[C@@H]2CN3CCC2CC3)ccn1 (stereo partly shown) ?
28.3

CC(C)(C)c1ccc(-c2ccc3c(c2)OCCC3NC(=O)O[C@@H]2CN3CCC2CC3)cc1 (stereo partly shown) ?
23.3

COc1ccc(-c2ccc3c(c2)OCC(C)(C)C3NC(=O)O[C@@H]2CN3CCC2CC3)cc1Cl (stereo partly shown) ?
4.43

CCOc1c(C)cc(-c2ccc3c(c2)OCCC3(C)NC(=O)O[C@@H]2CN3CCC2CC3)cc1C (stereo partly shown) ?
4.1

CCc1ccc(-c2cc3c(cc2OC)C(NC(=O)O[C@@H]2CN4CCC2CC4)C(C)(C)CO3)cc1 (stereo partly shown) ?
2.3

COc1c(C)cc(-c2cc3c(cc2F)C(NC(=O)O[C@@H]2CN4CCC2CC4)C(C)(C)CO3)cc1C (stereo partly shown) ?
9.5

CC1(C)CC(NC(=O)O[C@@H]2CN3CCC2CC3)c2ccc(-c3cccc(OC(F)(F)F)c3)cc2O1 (stereo partly shown) ?
1.26

CC1(C)COc2cc(-c3cccc(OCc4ccccc4)c3)ccc2C1NC(=O)O[C@@H]1CN2CCC1CC2 (stereo partly shown) ?
0.9

Cn1c(-c2ccc3c(c2)OCCC3NC(=O)O[C@@H]2CN3CCC2CC3)cc2ccccc21 (stereo partly shown) ?
24.8
